assay info: Solubility assessment of MH1 in solvents (HPLC of liquors, XRPD of isolated solids)
Type: physicochemical
study conditions: organic solvent or mixture, thermodynamic from solid; Ethanol:4.2% water, 50° C., 24 hours
reported endpoint: solubility at 24 h

Provide measured solubility at 24 h value, entry: C[C@@H]1CN(Cc2ncccn2)C[C@H]1c1cn2c(C3CCOCC3)ncc2c(=O)[nH]1
> 200 mg/mL

---

assay info: Solubility assessment of MH1 in solvents (HPLC of liquors, XRPD of isolated solids)
Format: physicochemical
study conditions: organic solvent or mixture, thermodynamic from solid; IPA, 50° C., 24 hours
Procedure: Procedure: Four solvents were chosen based on the competitive slurry experiments that favored MH1 as well as for diversity. Combinations of those solvents with water (aw=0.35) were also utilized to verify which hydrate is favored. Mixtures of the solvents with heptane (1:1) were used to check for crystal form with a good antisolvent. MH1 (22×104 mg) was suspended in various solvents (11×0.5 ml) and stirred at either 5 or 50° C. for 24 hours at 750 rpm. […]
reported endpoint: solubility at 24 h

In one line, give reported solubility at 24 h of the entry C[C@@H]1CN(Cc2ncccn2)C[C@H]1c1cn2c(C3CCOCC3)ncc2c(=O)[nH]1 [MH1] .
> 200 mg/mL

---

assay info: Solubility assessment of MH1 in solvents (HPLC of liquors, XRPD of isolated solids)
Assay type: physicochemical
study conditions: organic solvent or mixture, thermodynamic from solid; THF:Heptane 2:1, 50° C.
Protocol: Procedure: Four solvents were chosen based on the competitive slurry experiments that favored MH1 as well as for diversity. Combinations of those solvents with water (aw=0.35) were also utilized to verify which hydrate is favored. Mixtures of the solvents with heptane (1:1) were used to check for crystal form with a good antisolvent. MH1 (22×104 mg) was suspended in various solvents (11×0.5 ml) and stirred at either 5 or 50° C. for 24 hours at 750 rpm. […]
reported endpoint: solubility at 24 h (mg/mL)
Express the result in mg/mL but write the number alone.

Read the entry C[C@@H]1CN(Cc2ncccn2)C[C@H]1c1cn2c(C3CCOCC3)ncc2c(=O)[nH]1 [MH1] and write its reported solubility at 24 h.
21

---

assay info: Solubility assessment of MH1 in solvents (HPLC of liquors, XRPD of isolated solids)
Assay type: physicochemical
study conditions: organic solvent or mixture, thermodynamic from solid; THF:Heptane 1:1, 50° C., 24 hours
reported endpoint: solubility at 24 h (mg/mL)
Report the value in mg/mL with no unit label.

Return reported solubility at 24 h. Input molecule: C[C@@H]1CN(Cc2ncccn2)C[C@H]1c1cn2c(C3CCOCC3)ncc2c(=O)[nH]1 [MH1]
11

---

assay info: Solubility assessment of MH1 in solvents (HPLC of liquors, XRPD of isolated solids)
Assay type: physicochemical
study conditions: organic solvent or mixture, thermodynamic from solid; IPA:Heptane 1:2, 5° C.
reported endpoint: solubility at 24 h (mg/mL)
Kindly answer with a numeric value in mg/mL, unit omitted.

Supply reported solubility at 24 h belonging to this compound: C[C@@H]1CN(Cc2ncccn2)C[C@H]1c1cn2c(C3CCOCC3)ncc2c(=O)[nH]1
14

---

assay info: Solubility assessment of MH1 in solvents (HPLC of liquors, XRPD of isolated solids)
Assay type: physicochemical
study conditions: organic solvent or mixture, thermodynamic from solid; Ethanol, 5° C., 24 hours
reported endpoint: solubility at 24 h

Given C[C@@H]1CN(Cc2ncccn2)C[C@H]1c1cn2c(C3CCOCC3)ncc2c(=O)[nH]1 , respond with its solubility at 24 h.
> 200 mg/mL
